tested_system: α-cobratoxin (Naja kaouthia, UniProt P01391 1-71)
Sequence (P01391 whole entry): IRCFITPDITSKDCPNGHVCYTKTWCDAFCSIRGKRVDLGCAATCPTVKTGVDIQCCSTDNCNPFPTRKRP
assay_name: fluorescence polarisation
test_parameters: both partners purified
Primed or numbered codes have the meaning given here. Where no end group is shown, it is not given here. [ ]: non-standard residue; d: D form. PEG6′ = [PEG]6, polyethylene glycol
quantity_measured: Ki (µM)

INSERT INTO assay_data (binder, units, reported_result) VALUES
  ('[PEG6′]YMWDGWYM-NH2 [peptide 12 ([PEG]6-YMWDGWYM-NH2)]', 'µM', 26),
  ('Ac-HAKTYMWDGWYMPTSH-NH2 [peptide 1 (Ac-HAKTYMWDGWYMPTSH-NH2)]', 'µM', 2);
